Where do these numbers come from? They come from paper PMC3071364.

Let's look at some compounds and their measured kcat/Km fold increase over FhCL1.
Target: FhCL2 (Fasciola hepatica, UniProt Q7JNQ8)
Sequence (Q7JNQ8 entry or part of it): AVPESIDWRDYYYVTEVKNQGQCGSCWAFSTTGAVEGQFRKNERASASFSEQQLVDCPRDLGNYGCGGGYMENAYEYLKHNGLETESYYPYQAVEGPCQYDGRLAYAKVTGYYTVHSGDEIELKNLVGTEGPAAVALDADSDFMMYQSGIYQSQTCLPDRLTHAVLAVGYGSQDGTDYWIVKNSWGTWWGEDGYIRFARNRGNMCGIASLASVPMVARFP
Experiment: Hydrolysis of fluorogenic peptidyl-NHMec substrates by recombinant FhCL2
Type: biochemical
Conditions: FhCL2 compared to FhCL1
Where a SMILES comes first, the peptide text is derived from it. The star is where a group is joined. AMC = Cc1cc(=O)oc2cc(N*)ccc12; Tos = Cc1ccc(S(=O)(=O)*)cc1; Boc = CC(C)(C)OC(=O)*
The reply should contain only the number, in fold.

Consider the following illustrative entries.
Cc1ccc(S(=O)(=O)NCC(=O)N2CCC[C@H]2C(=O)N[C@@H](CCCN=C(N)N)C(=O)Nc2ccc3c(C)cc(=O)oc3c2)cc1 [Tos-GPR-NHMec, Tos-Gly-Pro-Arg-NHMec] (Tos-Gly-Pro-Arg-{AMC}) = 28
Cc1ccc(S(=O)(=O)NCC(=O)N2CCC[C@H]2C(=O)N[C@@H](CCCCN)C(=O)Nc2ccc3c(C)cc(=O)oc3c2)cc1 [Tos-GPK-NHMec, Tos-Gly-Pro-Lys-NHMec] (Tos-Gly-Pro-Lys-{AMC}) = 22
Cc1cc(=O)oc2cc(NC(=O)[C@H](CCCN=C(N)N)NC(=O)[C@@H]3CCCN3C(=O)[C@@H](NC(=O)OC(C)(C)C)C(C)C)ccc12 [Boc-VPR-NHMec, Boc-Val-Pro-Arg-NHMec] (Boc-Val-Pro-Arg-{AMC}) = 44

Query compound follows.
Query block: Enter reported kcat/Km fold increase over FhCL1 observed with FhCL2 (Fasciola hepatica, UniProt Q7JNQ8) for Cc1cc(=O)oc2cc(NC(=O)[C@H](CCCN=C(N)N)NC(=O)[C@@H]3CCCN3C(=O)CNC(=O)[C@H](C)NC(=O)OC(C)(C)C)ccc12 [Boc-AGPR-NHMec, Boc-Ala-Gly-Pro-Arg-NHMec] (Boc-AGPR-{AMC})
Result block: 86
